# tgt: Cyclin-dependent kinase 2/cyclin A (Homo sapiens, UniProt P24941)
# experiment_notes: Inhibition of recombinant Cdk2/cyclinA
Kindly apply the following: class 1 if IC50 is less than 600 nM, class 0 in every other case.

{"columns": ["smiles_code", "class_label"],
 "data": [
  ["CC(C)n1cnc2c(NCc3ccc(-c4ccsc4)s3)nc(N[C@H]3CC[C@H](N)CC3)nc21", "class 1"]
]}

Enquiry: Please determine if CC(C)n1cnc2c(NCc3ccc(-c4cccs4)nc3)nc(N[C@H]3CC[C@H](N)CC3)nc21 is below 600 nM in terms of IC50.
Return: class 0

Enquiry: Find out if reported IC50 for CC(C)n1cnc2c(NCc3ccc(-c4cccnc4)s3)nc(N[C@H]3CC[C@H](N)CC3)nc21 is less than 600 nM
Return: class 1

Enquiry: Threshold test, IC50 < 600 nM: CC(C)n1cnc2c(NCc3ccc(-n4cccn4)cc3)nc(N[C@H]3CC[C@H](N)CC3)nc21
Return: class 1

----------
# tgt: Cyclin-dependent kinase 2/cyclin E (Homo sapiens)
# experiment_notes: Inhibition of Cdk2/cyclinE
Could you please mark 1.0 for values of IC50 below 90 nM and 0.0 for values at or above it?

Record excerpt, results attached:
{"columns": ["smiles_code", "class_label"],
 "data": [
  ["CC(C)n1cnc2c(NCc3ccc(-c4ccsc4)s3)nc(N[C@H]3CC[C@H](N)CC3)nc21", 0.0],
  ["CC(C)n1cnc2c(NCc3ccc(-c4ccsc4)nc3)nc(N[C@H]3CC[C@H](N)CC3)nc21", 1.0],
  ["COc1cccc(-c2ccc(CNc3nc(N[C@H]4CC[C@H](N)CC4)nc4c3ncn4C(C)C)s2)c1", 0.0],
  ["CC(C)n1cnc2c(NCc3ccc(-c4ccccc4)cc3)nc(N[C@H]3CC[C@H](N)CC3)nc21", 0.0],
  ["CC(C)n1cnc2c(NCc3cnc(-c4ccccc4)s3)nc(N[C@H]3CC[C@H](N)CC3)nc21", 1.0]
]}

Enquiry: Does the reported IC50 of the following compound sit strictly below 90 nM? Cc1csc(-c2ccc(CNc3nc(N[C@H]4CC[C@H](N)CC4)nc4c3ncn4C(C)C)cc2)c1
Return: 0.0

----------
# tgt: Cyclin-dependent kinase 2/cyclin A (Homo sapiens, UniProt P24941)
# experiment_notes: Inhibition of recombinant Cdk2/cyclinA
quantity_name: pIC50
// pIC50 is dimensionless: -log10 of concentration (M)

Illustrative cases are given below, each with its answer.
{"columns": ["smiles_code", "tgt", "pIC50"],
 "data": [
  ["Cc1cccc(-c2ccc(CNc3nc(N[C@H]4CC[C@H](N)CC4)nc4c3ncn4C(C)C)s2)c1", "Cyclin-dependent kinase 2/cyclin A (Homo sapiens, UniProt P24941)", 6.15],
  ["CC(C)n1cnc2c(NCc3ccc(-n4cccn4)nc3)nc(N[C@H]3CC[C@H](N)CC3)nc21", "Cyclin-dependent kinase 2/cyclin A (Homo sapiens, UniProt P24941)", 7.15],
  ["CC(C)n1cnc2c(NCc3ccc(-c4ccccn4)s3)nc(N[C@H]3CC[C@H](N)CC3)nc21", "Cyclin-dependent kinase 2/cyclin A (Homo sapiens, UniProt P24941)", 5.82]
]}

Enquiry: What pIC50 appears in the records for this compound with Cyclin-dependent kinase 2/cyclin A (Homo sapiens, UniProt P24941)? Cc1ccc(-c2ccc(CNc3nc(N[C@H]4CC[C@H](N)CC4)nc4c3ncn4C(C)C)cc2)s1
Return: 6.22

Enquiry: Checklist item: pIC50 tested on Cyclin-dependent kinase 2/cyclin A (Homo sapiens, UniProt P24941), entry CC(C)n1cnc2c(NCc3ccc(-c4ccc(F)cc4)s3)nc(N[C@H]3CC[C@H](N)CC3)nc21 , value?
Return: 6.30

Enquiry: Notebook entry, Cyclin-dependent kinase 2/cyclin A (Homo sapiens, UniProt P24941) assay: pIC50 of CC(C)n1cnc2c(NCc3ccc(-c4ccsc4)nc3)nc(N[C@H]3CC[C@H](N)CC3)nc21 = ?
Return: 7.00

Enquiry: Record lookup: for Cyclin-dependent kinase 2/cyclin A (Homo sapiens, UniProt P24941), what pIC50 belongs to Cc1csc(-c2ccc(CNc3nc(N[C@H]4CC[C@H](N)CC4)nc4c3ncn4C(C)C)s2)n1 ?
Return: 7.00

Enquiry: # value lookup — system Cyclin-dependent kinase 2/cyclin A (Homo sapiens, UniProt P24941), readout pIC50, item CC(C)n1cnc2c(NCc3ccc(-c4ccco4)s3)nc(N[C@H]3CC[C@H](N)CC3)nc21
Return: 6.70

Each recorded value in this set is attributed to ChEMBL document CHEMBL1154657.
